Where do the numbers come from? From patent EP4471048A1.

Tested on: human IL-23R (Homo sapiens)
Sequence (Q5VWK5 22-629): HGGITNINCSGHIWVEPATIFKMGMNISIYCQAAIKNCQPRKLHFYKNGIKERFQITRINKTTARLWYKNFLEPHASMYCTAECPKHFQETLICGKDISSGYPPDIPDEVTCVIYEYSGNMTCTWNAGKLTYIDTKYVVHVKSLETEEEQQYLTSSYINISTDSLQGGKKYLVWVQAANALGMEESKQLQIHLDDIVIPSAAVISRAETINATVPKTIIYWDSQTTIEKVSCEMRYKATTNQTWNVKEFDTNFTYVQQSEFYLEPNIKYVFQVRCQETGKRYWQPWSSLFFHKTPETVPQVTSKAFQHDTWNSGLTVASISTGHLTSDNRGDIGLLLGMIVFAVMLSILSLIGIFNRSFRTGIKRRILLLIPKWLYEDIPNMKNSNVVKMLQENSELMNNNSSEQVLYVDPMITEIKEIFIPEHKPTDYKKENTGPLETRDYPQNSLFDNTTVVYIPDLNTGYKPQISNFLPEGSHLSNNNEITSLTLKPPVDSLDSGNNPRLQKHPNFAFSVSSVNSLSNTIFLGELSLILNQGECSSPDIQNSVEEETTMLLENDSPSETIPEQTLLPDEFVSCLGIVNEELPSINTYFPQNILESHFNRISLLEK
pIC50: −log10 of the molar value. *1 amine or outer side, *2 acyl side, *3 side chain or, on linkers, in order; H or OH if unused. Where a SMILES comes first, the peptide text is derived from it. Bridges are numbered along the chain shown (N, C = ends). [ ]: non-standard residue; d: D form. β3hW = N[C@H](CC(=O)O)Cc1c[nH]c2ccccc12; 2Nal = N[C@@H](Cc1ccc2ccccc2c1)C(=O)O; AEF = NCCOc1ccc(C[C@H](N)C(=O)O)cc1; X1 = O=C(Cc1ccc(CN[*:1])cc1)[*:2]; 3Pal = N[C@@H](Cc1cccnc1)C(=O)O; αMeL = CC(C)C[C@](C)(N)C(=O)O; CH2COCH2 = O=C(C[*:1])C[*:2]; β3hK = NCCCC[C@H](N)CC(=O)O; Dab = NCC[C@H](N)C(=O)O
Record 1 whenever pIC50 is at 9 or higher; record -1 when lower.

Check the entry CC(C)C[C@]1(C)NC(=O)[C@H](Cc2ccc3ccccc3c2)NC(=O)[C@H](Cc2ccc(OCCN)cc2)NC(=O)[C@@H]2CSCC(=O)CSC[C@H](NC(=O)[C@H](CO)NC(=O)Cc3ccc(cc3)CNC(=O)CC[C@@H](C(=O)N[C@@H](CCCNC(=N)N)C(N)=O)NC1=O)C(=O)N[C@@H](Cc1c[nH]c3ccccc13)C(=O)N[C@@H](CCC(N)=O)C(=O)N2 [Ref 52, reference compound] ([X1]SCWQC[AEF][2Nal][αMeL]ER-NH2; linker 3-6 via CH2COCH2; lactam N-10) : does pIC50 equal or exceed 9?
1

State whether the measured pIC50 reaches 9, counting equality as reaching it, for CNC(=O)[C@H](Cc1cccnc1)NC(=O)[C@H](CCN)NC(=O)[C@@H]1CCC(=O)NCCCC[C@@H]2NC(=O)CC[C@H](NC(=O)[C@H](CCC(N)=O)NC(=O)[C@H](Cc3c[nH]c4ccccc34)NC(=O)C[C@H]([C@@H](C)O)NC2=O)C(=O)N[C@@H](Cc2ccc(OCCN)cc2)C(=O)N[C@@H](Cc2ccc3ccccc3c2)C(=O)N[C@@](C)(CC(C)C)C(=O)N1 [Compound 97]
1

Check the entry CNC(=O)[C@H](Cc1cccnc1)NC(=O)[C@H](CCN)NC(=O)[C@@H]1CCC(=O)NCCCC[C@H]2CC(=O)N[C@@H](Cc3c[nH]c4ccccc34)C(=O)N[C@@H](CCC(N)=O)C(=O)N[C@@H](CCC(=O)N2)C(=O)N[C@@H](Cc2ccc(OCCN)cc2)C(=O)N[C@@H](Cc2ccc3ccccc3c2)C(=O)N[C@@](C)(CC(C)C)C(=O)N1 [Compound 101] : does pIC50 equal or exceed 9?
-1

Textbook exercise: given the entry CC[C@H](C)[C@@H]1NC(=O)[C@@H]2CCCCNC(=O)CC[C@@H](C(=O)N[C@@H](CCN)C(=O)N[C@@H](Cc3cccnc3)C(=O)NC)NC(=O)CNC(=O)[C@H](Cc3ccc4ccccc4c3)NC(=O)[C@H](Cc3ccc(OCCN)cc3)NC(=O)[C@H](CCC(=O)N2)NC(=O)[C@H](CCC(N)=O)NC(=O)[C@H](Cc2c[nH]c3ccccc23)NC(=O)[C@H](C(C)C)NC1=O [Compound 68] , state whether its pIC50 is greater than or equal to 9.
1

Textbook exercise: given the entry CC[C@H](C)[C@@H]1NC(=O)[C@@H]2CCCCNC(=O)CC[C@@H](C(=O)N[C@@H](Cc3cnc[nH]3)C(=O)N[C@@H](Cc3cccnc3)C(=O)NC)NC(=O)[C@](C)(CC(C)C)NC(=O)[C@H](Cc3ccc4ccccc4c3)NC(=O)[C@H](Cc3ccc(OCCN)cc3)NC(=O)[C@H](CCC(=O)N2)NC(=O)[C@H](CCC(N)=O)NC(=O)[C@H](Cc2c[nH]c3ccccc23)NC(=O)[C@H](C(C)C)NC1=O [Compound 69] , state whether its pIC50 is greater than or equal to 9.
1

Is it the case that CNC(=O)[C@H](Cc1cccnc1)NC(=O)[C@H](CCN)NC(=O)[C@@H]1CCC(=O)NCCCC[C@@H]2NC(=O)CC[C@H](NC(=O)[C@H](CCC(N)=O)NC(=O)[C@H](Cc3c[nH]c4ccccc34)NC(=O)CCNC2=O)C(=O)N[C@@H](CC2CC2)C(=O)N[C@@H](Cc2ccc3ccccc3c2)C(=O)N[C@@](C)(CC(C)C)C(=O)N1 [Compound 82] has pIC50 reaching or exceeding 9?
-1

Textbook exercise: given the entry CC(=O)N[C@H]1CCSC[C@@H](C(=O)N[C@@H](Cc2ccc(OCCN)cc2)C(=O)N[C@@H](Cc2c[nH]c3ccccc23)C(=O)N[C@@](C)(CCCCN)C(=O)N[C@@H](CCC(=O)O)C(=O)N[C@@H](CC(N)=O)C(=O)NCC(N)=O)NC(=O)[C@H](CCC(N)=O)NC(=O)[C@H](Cc2c[nH]c3ccccc23)NC(=O)[C@H]([C@@H](C)O)NC(=O)[C@H](CCC(N)=O)NC1=O [Compound C, reference compound] , state whether its pIC50 is greater than or equal to 9.
-1

Answer whether pIC50 of CNC(=O)[C@H](Cc1cccnc1)NC(=O)[C@H](CCN)NC(=O)[C@@H]1CCC(=O)N[C@H]2CCNC(=O)CC[C@H](NC(=O)[C@H](CCC(N)=O)NC(=O)[C@H](Cc3c[nH]c4ccccc34)NC2=O)C(=O)N[C@@H](Cc2ccc(OCCN)cc2)C(=O)N[C@@H](Cc2ccc3ccccc3c2)C(=O)N[C@@](C)(CC(C)C)C(=O)N1 [Compound 103] is greater than or equal to 9.
-1

In plain terms: is recorded pIC50 at least 9 for CNC(=O)[C@H](Cc1cccnc1)NC(=O)[C@H](CCN)NC(=O)[C@@H]1CCC(=O)NCCCC[C@H]2CC(=O)N[C@@H](Cc3c[nH]c4ccccc34)CC(=O)N[C@@H](CCC(N)=O)C(=O)N[C@@H](CCC(=O)N2)C(=O)N[C@@H](Cc2ccc(OCCN)cc2)C(=O)N[C@@H](Cc2ccc3ccccc3c2)C(=O)N[C@@](C)(CC(C)C)C(=O)N1 [Compound 100] ([β3hK][β3hW]QE[AEF][2Nal][αMeL]E[Dab][3Pal]-NHMe; lactam 1-8, N-4) ?
-1

Determine whether measured pIC50 meets or exceeds 9 for CNC(=O)[C@H](Cc1cccnc1)NC(=O)[C@H](CCN)NC(=O)[C@@H]1CCC(=O)NCCCCC[C@@H]2NC(=O)CC[C@H](NC(=O)[C@H](CCC(N)=O)NC(=O)[C@H](Cc3c[nH]c4ccccc34)NC2=O)C(=O)N[C@@H](Cc2ccc(OCCN)cc2)C(=O)N[C@@H](Cc2ccc3ccccc3c2)C(=O)N[C@@](C)(CC(C)C)C(=O)N1 [Compound 93]
-1

Confirm if pIC50 reported for the compound CC[C@H](C)[C@@H]1NC(=O)[C@@H]2CCCCNC(=O)CC[C@@H](C(=O)NCC(=O)N[C@H](Cc3cccnc3)C(N)=O)NC(=O)[C@](C)(C(C)C)NC(=O)[C@H](CC3CC3)NC(=O)[C@H](Cc3ccc(C)cc3)NC(=O)[C@H](CCC(=O)N2)NC(=O)[C@H](CCC(N)=O)NC(=O)[C@H](Cc2c[nH]c3ccccc23)NC(=O)[C@H](C(C)C)NC1=O [Compound 23] is 9 or above.
-1
